Ref: the supplement of paper PMC9170038

System: MS2 coat protein
method notes: apparent KD of MS2 coat protein; designed switch direction (-1 OFF switch, 1 ON switch): -1; higher = weaker reporter binding
measurement context: input ligand: none
Please use Fulfilled whenever apparent KD of MS2 coat protein is not below 40 nM, and Not fulfilled whenever it is.

GAUAGGGCAGGAUAUCGAGAUCCGCACAUGAGGAUCACCCAUGUUCGGUCGAAAGACCGACGAGAAGGGCCGUAUC [Omei Ex5 E6] (Eterna round: R97, puzzle: Exclusion 5) : Fulfilled
UAAUUUUUAGUAAGGAUAUCGGUCCCAAGGGACAACGAGAAGGUACAUGAGGAUCACCCAUGUGACGAAAGAAU [Mod of Zala 9 - Jieux - Brourd's Mod of Exclusion 4] (Eterna round: R97, puzzle: Brourd's mod of Exclusion 4) : Not fulfilled
CAGUACUGAGGAUAUACAUGAGGAUCACCCAUGUGUCCCGGCUAGGAAACUAGCAAAAGUAGAAGGCAGUACUG [Fiskers Ex 3 828 mod 2] (Eterna round: R96, puzzle: Exclusion 3) : Not fulfilled
GAUUCACAUGACUGUCUAUACAUGAGGAUCACCCAUGUUUGUUUUUAUUUUUUUUUGCUUUUUAGUCGUCUUAUUAU [1 hard RNA] (Eterna round: R97, puzzle: Sensor, turn-off variant 1) : Not fulfilled

Then there is this sequence:
For this sequence, is measured apparent KD of MS2 coat protein 40 nM or higher? ACCGACAGAGGAUAUGCAAGUAGGAACAUGAGGAUCACCCAUGUGAUACGUGCACGUGCGGCAGAAGGCUGAUCGA [Velamaed] (Eterna round: R97, puzzle: Exclusion 5)
Not fulfilled

###

Test system: K4 kissing-loop RNA reporter;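 further: bound reporter read as fluorescence of individual clusters on recovered sequencing chips by microscopy, with normalized cluster intensities fitted with a binding model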
method notes: apparent KD of K4 kissing-loop reporter; higher = weaker reporter binding
measurement context: Eterna round: R107; input ligand: theophylline 20 uM
Reported apparent KD of K4 kissing-loop reporter is given for each of the following sequences.
Number plus unit, in that order.

AAGGCCACGAGAAGGAGCGUGUUGUGGAGUGAUGUUCCAUUGUAGACCUAAGGUCUGCGAGCACAGGUAGGUCGCUCGUGGUCAA [whbob_SS_Arginine_B_2t150] : 110 nM
UGCAUGUGAAACAUGUAGGUGCUAGGUGAAGGAGCGAUCGAAAGAUCAGGUAGGUCGCACCUUCCUGAGUGAUGUUCAGGUAAUA [KL-SSArg-A2] : 55.2 nM
GUGAAGGAGCUGCAGUGAUGUUGCAGAGACUAGGAUAUCAGGAAACUGAGAAGGAGUCAACUCCUUCACCUAGACACUGCAGAAA [[F]''-[K1]-[K2]-[F1]-[F2]-[F2]'-[F1]'-[K]'_Design1] : 170 nM
UUUUUAUAAGAGGAUACCAGUACAAAUAAAGUACAUUAAUAGUAGAGUGAUGUUCUAAAGUACCCUUGGCAGCUUAGAUUAAGUU [ExTheophylB.D] : 255 nM
UUUCUACCGGGAAGGAGCGUGAAUGAUAAUGGAUAUAGUGAUGUUAUAUAUAAGAACGAAUCGCAGGUAGGUCGCCCGGAUGACU [SSArgB.S] : 397 nM

Turning now to a further record.
Write down apparent KD of K4 kissing-loop reporter measured for item AGGCGACGCAAAGGAUAUCACGGUUUUCUAGUGAUGUUAGUCAAGACCGACCGAGAAAUCAGUGUUUGAGAAGGUUGAACGUCGC [theeternabot_sameState_KL_FMN_B_46]
756 nM

###

Tested on: MS2 coat protein
method notes: apparent KD of MS2 coat protein; higher = weaker reporter binding
measurement context: Eterna round: R107; input ligand: none
# if value of apparent KD of MS2 coat protein reaches 300 nM, tag yes (1); if it stays below, tag no (0)

GCAUCCUAGUCGGCCGCCACUGACAUGAGGAUCACCCAUGUACAUGAGGAUCACCCAUGUUGUAGCAGGACCGGGACUAGGAUGC [SS Tryp B #17] : no (0)

# bool: apparent KD of MS2 coat protein of ACAUGAGGAUCACCCAUGUAAUUAACAGAAGGAGCGUGAUGGAUCACAGGUAGGUCGCUGUACUUAGAAAUAACUCUCAUGAAUA [JR_Nu_SSArginiA_Sub024] >= 300 nM
no (0)

Dear colleague, could you confirm whether CGGUAACCACAUGAGGAUCACCCAUGUGAAGGAGCGGCGAAUAAGCCAGGUAGGUCGCGCAUGAAUAAAUCAUGUUGGUGCCGAA [XArg-A 16 NuPack] has apparent KD of MS2 coat protein at or above 300 nM?
no (0)

Test whether the sequence ACACAUGAGGAUCACCCAUGUGCGCUGGAAGGAGCGCAGAAUCAUGCAGGUAGGUCGCCAGUGCCCAUUACUAGAGGGAUAAGAG [Onriri] records apparent KD of MS2 coat protein of 300 nM or higher.
no (0)

Reported apparent KD of MS2 coat protein reaches at least 300 nM for CGGUAACCACAUGAGGAUCACCCAUGUGAAGGAGCGGCGAAUAAGCCAGGUAGGUCGCGCAUGAAUAAAUCAUGUAGGUGCCGAA [XArg-A 15 NuPack] ?
no (0)

# check: apparent KD of MS2 coat protein of GGGUACAUCGCGGCCGCCACUCAUGUAAAUACAUGAGGAUCACCCAUGUCGAUGGAGACAUCGGAGAGGACCGGGCGAUGUACCG is greater than or equal to 300 nM
yes (1)

###

Test system: MS2 coat protein
method notes: apparent KD of MS2 coat protein; designed switch direction (-1 OFF switch, 1 ON switch): -1; higher = weaker reporter binding
measurement context: input ligand: none
measured endpoint: apparent KD of MS2 coat protein (nM)
Output spec: scalar in nM, unitless text.

Kindly indicate its recorded apparent KD of MS2 coat protein. Item: GAAGUCGACUAGGAUAUUACAGGCUCAUGCCGUUGAGAAGGAGUGACAUGAGGAUCACCCAUGUCCUCAAGCGC [Eternabot (Original) Solution 48] (Eterna round: R97, puzzle: Exclusion 6)
16.2

Name the recorded apparent KD of MS2 coat protein of the sequence listed here: AGUAAGCUAGGAUAUGCUUUGGGAAAGCAUUCCUUCGAUAAACUUGAGGAUCACCCAAGUAGAAGGAGCUAAAU [jl-ex2.4.49 ViennaUCT mod] (Eterna round: R97, puzzle: Exclusion 2)
15.4

Note apparent KD of MS2 coat protein for the sequence shown: AACAAGUGAGGAUAUGAACCACUUGCCCACGCAUGCGUGGAUCAGAAGGCACUUGAGGAUCACCCAAGUCCUAA [Texeusso] (Eterna round: R97, puzzle: Exclusion 4)
21.3

Look up apparent KD of MS2 coat protein of UUGAUUCAUGUAGGAUAUGCGUGGCGAAGCUAUGCAGAAGGACAUGAGGAUCACCCAUGUGCUUGCGUCCGCGUACGGAUGCUA [JL ENG1 1.23] (Eterna round: R96, puzzle: Exclusion NG 1) and report it.
165

Name the recorded apparent KD of MS2 coat protein of the item CGAAUUCGUUAGGAUAUGAGGCAGAGGUCCGCCUCAGAAGGAAUGACAUGAGGAUCACCCAUGUAGACCCAAGG [Eternabot (Original) Solution 1] (Eterna round: R97, puzzle: Exclusion 6) in your answer.
19.1

###

System: MS2 coat protein
method notes: apparent KD of MS2 coat protein; designed switch direction (-1 OFF switch, 1 ON switch): 1; higher = weaker reporter binding
measurement context: Eterna round: R95; input ligand: FMN 200 uM
Decision: apparent KD of MS2 coat protein compared against 70 nM; not below it gives 1, below it gives -1.

AGUCCAGCCUGAGCUGGACAAAAGCAUGUACAUGAGGAUCACCCAUGUUAUGUACAAGCUUUUUGCUCGUCUUAAAA [Zipper 46 - 15] (puzzle: Sensor for hsa-mir-208a) : 1
UACCAACAAAUAAAACAAGCGUGCUCGUCACAUGAGGAUCACCCAUGUUUAAACGCUGUACCUACAUCCUCAGCGCC [Usatqulale] (puzzle: Sensor for hsa-mir-208a) : -1
GUCAGGUAAGCUUUUUUCUCGUAGUGUAAACAUGAGGAUCACCCAUGUGCUCACCCUGGAUCUUUGGAUCGCAGAAA [Atormace] (puzzle: Sensor for hsa-mir-208a) : -1
UUUAGUUGCGGGCAGGAUAUGUAUUAAAAUACAUGAGGAUCACCCAUGUGCGGGUAUAACACCCGGCAGAAGGGCCAAUCGCGAC [Laonerce - 3] (puzzle: Same State 2) : -1
UUAUAACAUGAGGAUCACCCAUGUCAACAAAGUCGAGGAUAUGGGCAUAGAUUAUAAGAACCAGAAGGCGAAUAUU [Mat - Same State 1 - Mod of UCT - D40] (puzzle: Same State 1) : -1

Kindly determine if apparent KD of MS2 coat protein recorded for AGUCCAGCCAGAGCUGGACAAAAGCAUGUACAUGAGGAUCACCCAUGUUCAUGUACAAGCUUUUUGCUCGUCUUAAA [Mat - hsa-mir-208a - Mod of JL - 55] (puzzle: Sensor for hsa-mir-208a) is above or exactly 70 nM.
1

Does AAUUAUUGACAUGAGGAUCACCCAUGUAAAGCAUGGAUUAACAAGCUACAAGCUUUUUGCUCGUCUUAUCCUAUAGG [Improved Bojan's design] (puzzle: Sensor for hsa-mir-208a version 2) have a reported apparent KD of MS2 coat protein of at least 70 nM?
-1

Reported apparent KD of MS2 coat protein reaches at least 70 nM for AGUCCAGCCUGAGCUGGACAAAAGCAUGUACAUGAGGAUCACCCAUGUUCAUGUACAAGCUUUUUGCUCGUUUUAAA [Zipper 52 - 8] (puzzle: Sensor for hsa-mir-208a) ?
1

Given the entry UCUUGGUUUUUGCUCGUUUUUUGUGUUGAACAUGAGGAUCACCCAUGUAUUGUACGGUCCAGUUUGAUAGUGGUCCG [JMF 33] (puzzle: Sensor for hsa-mir-208a) , answer whether its apparent KD of MS2 coat protein meets or surpasses 70 nM.
-1

Assess whether reported apparent KD of MS2 coat protein for CGUGGGUGGCUGGAGGAUAUUCGAGUGGUAACAUGAGGAUCACCCAUGUGUCGCGCGGUACAUGAGGAGAAGGCUGGCGGCCGGC (puzzle: Same State 2) sits at 70 nM or higher.
1
